Readings of CARBON DIOXIDE for the listed molecules
Organism: Rattus norvegicus
ASSAY DETAILS: DrugMatrix - Regimen: Daily Repeat
Format: toxicity, organism-based, Sprague-Dawley
Parameters: regimen Daily Repeat, gender Male, age 6-8 weeks
EXPERIMENTAL SETUP: in vivo, po, 0 mg/kg, 120 h, tissue Plasma, route oral GAVAGE, dose level Control, time 5 day, […]
A number alone suffices; assume mmol/L.

// known answers, use as guide
Value of measured CARBON DIOXIDE for the entry NC[C@@H]1O[C@H](O[C@H]2[C@@H](O)[C@H](O[C@@H]3[C@@H](O)[C@H](N)C[C@H](N)[C@H]3O[C@H]3O[C@H](CN)[C@@H](O)[C@H](O)[C@H]3N)O[C@@H]2CO)[C@H](N)[C@@H](O)[C@@H]1O [FRAMYCETIN] : 26.4

Value of measured CARBON DIOXIDE for the entry CC(CCc1ccc(O)cc1)NCCc1ccc(O)c(O)c1 (stereo not given) [DOBUTAMINE] : 43

Next:
Value of measured CARBON DIOXIDE for the entry C#C[C@]1(O)CC[C@H]2[C@@H]3CCc4cc(O)ccc4[C@H]3CC[C@@]21C [ETHINYL ESTRADIOL] : 25.33

Value of measured CARBON DIOXIDE for the entry CC[C@H](C)C(=O)O[C@H]1C[C@@H](C)C=C2C=C[C@H](C)[C@H](CC[C@@H]3C[C@@H](O)CC(=O)O3)[C@H]21 [LOVASTATIN] : 32.67

Value of measured CARBON DIOXIDE for the entry OCCN1CCN(CCCN2c3ccccc3Sc3ccc(C(F)(F)F)cc32)CC1 [FLUPHENAZINE] : 27.17

Value of measured CARBON DIOXIDE for the entry CN(CCOc1ccc(CC2SC(=O)NC2=O)cc1)c1ccccn1 (stereo not given) [ROSIGLITAZONE] : 31.83

Value of measured CARBON DIOXIDE for the entry CC(=O)Nc1nnc(S(N)(=O)=O)s1 [ACETAZOLAMIDE] : 30.83

* * *

Species on record: Rattus norvegicus
ASSAY DETAILS: DrugMatrix - Regimen: Daily Repeat
Assay type: toxicity, organism-based, Sprague-Dawley
Set-up: regimen Daily Repeat, gender Male, age 6-8 weeks
EXPERIMENTAL SETUP: in vivo, po, 0 mg/kg, 72 h, tissue Blood, route oral GAVAGE, dose level Control, time 3 day, vehicle .5 % CMC
ASSAY ENDPOINT: EOSINOPHIL (%)
A number alone suffices; assume %.

Value of measured EOSINOPHIL for the entry C[C@@H]1CC[C@H]2[C@@H](C)C(=O)O[C@@H]3O[C@@]4(C)CC[C@@H]1[C@]32OO4 : 1

* * *

Organism: Rattus norvegicus
ASSAY DETAILS: DrugMatrix - Regimen: Daily Repeat
Format: toxicity, organism-based, Sprague-Dawley
Set-up: regimen Daily Repeat, gender Male, age 6-8 weeks
EXPERIMENTAL SETUP: in vivo, po, 0 mg/kg, 120 h, tissue Plasma, route oral GAVAGE, dose level Control, time 5 day, […]
ASSAY ENDPOINT: BLOOD UREA NITROGEN (mg/dL)
A number alone suffices; assume mg/dL.

// known answers, use as guide
Value of measured BLOOD UREA NITROGEN for the entry OCCN1CCN(CCCN2c3ccccc3Sc3ccc(C(F)(F)F)cc32)CC1 [FLUPHENAZINE] : 13.5

Value of measured BLOOD UREA NITROGEN for the entry CN(CCOc1ccc(CC2SC(=O)NC2=O)cc1)c1ccccn1 (centres undefined) [ROSIGLITAZONE] : 14.83

Next:
Value of measured BLOOD UREA NITROGEN for the entry CC(=O)Nc1nnc(S(N)(=O)=O)s1 [ACETAZOLAMIDE] : 13.67

Value of measured BLOOD UREA NITROGEN for the entry CCn1cc(C(=O)O)c(=O)c2cc(F)c(N3CCNCC3)nc21 [ENOXACIN] : 16

Value of measured BLOOD UREA NITROGEN for the entry C#C[C@]1(O)CC[C@H]2[C@@H]3CCc4cc(O)ccc4[C@H]3CC[C@@]21C [ETHINYL ESTRADIOL] : 16

Value of measured BLOOD UREA NITROGEN for the entry CC(C)Cc1ccc(CC(=O)O)cc1 [IBUFENAC] : 15

Value of measured BLOOD UREA NITROGEN for the entry CC(CCc1ccc(O)cc1)NCCc1ccc(O)c(O)c1 (centres undefined) [DOBUTAMINE] : 14.67

Value of measured BLOOD UREA NITROGEN for the entry COc1ncnc(NS(=O)(=O)c2ccc(N)cc2)c1OC [SULFADOXINE] : 13.67

Value of measured BLOOD UREA NITROGEN for the entry CC[C@H](C)C(=O)O[C@H]1C[C@@H](C)C=C2C=C[C@H](C)[C@H](CC[C@@H]3C[C@@H](O)CC(=O)O3)[C@H]21 [LOVASTATIN] : 13

* * *

Species: Rattus norvegicus
ASSAY DETAILS: DrugMatrix - Regimen: Daily Repeat
Assay type: toxicity, organism-based, Sprague-Dawley
Design: regimen Daily Repeat, gender Male, age 6-8 weeks
EXPERIMENTAL SETUP: in vivo, po, 0 mg/kg, 72 h, tissue Blood, route oral GAVAGE, dose level Control, time 3 day, vehicle 100 % WATER
ASSAY ENDPOINT: LEUKOCYTE COUNT (x10E3/uL)
A number alone suffices; assume x10E3/uL.

Value of measured LEUKOCYTE COUNT for the entry O=C(O)c1cccnc1 : 11.48

Value of measured LEUKOCYTE COUNT for the entry CC[C@H]1OC(=O)[C@H](C)[C@@H](O[C@H]2C[C@@](C)(OC)[C@@H](O)[C@H](C)O2)[C@H](C)[C@@H](O[C@@H]2O[C@H](C)C[C@H](N(C)C)[C@H]2O)[C@](C)(O)C[C@@H](C)CN(C)[C@H](C)[C@@H](O)[C@]1(C)O : 12.58

Value of measured LEUKOCYTE COUNT for the entry CC(C)(C)NC[C@H](O)COc1nsnc1N1CCOCC1 : 9.43

Value of measured LEUKOCYTE COUNT for the entry CCN(CC)CC#CCOC(=O)C(O)(c1ccccc1)C1CCCCC1 (centres undefined) : 15.35

Next:
Value of measured LEUKOCYTE COUNT for the entry CN1C2CCCC1CC(NC(=O)c1nn(C)c3ccccc13)C2 (centres undefined) : 9.43

Value of measured LEUKOCYTE COUNT for the entry CCN[C@@H](C)Cc1cccc(C(F)(F)F)c1 : 13.7

Value of measured LEUKOCYTE COUNT for the entry OCCO : 8.43

Value of measured LEUKOCYTE COUNT for the entry CNS(=O)(=O)Cc1ccc2[nH]cc(CCN(C)C)c2c1 : 13.43

Value of measured LEUKOCYTE COUNT for the entry O=C(O)c1cc(=O)c2c(OCC(O)COc3cccc4oc(C(=O)O)cc(=O)c34)cccc2o1 : 9.28

* * *

Species on record: Rattus norvegicus
ASSAY DETAILS: DrugMatrix - Regimen: Daily Repeat
Type: toxicity, organism-based, Sprague-Dawley
Design: regimen Daily Repeat, gender Male, age 6-8 weeks
EXPERIMENTAL SETUP: in vivo, po, 1500 mg/kg, 120 h, tissue Blood, route oral GAVAGE, dose level High, time 5 day, vehicle .5 % CMC
ASSAY ENDPOINT: ABSOLUTE MONOCYTE (CELLS/uL)
A number alone suffices; assume CELLS/uL.

Value of measured ABSOLUTE MONOCYTE for the entry Nc1nc2c(c(=O)[nH]1)N(C=O)C(CNc1ccc(C(=O)N[C@@H](CCC(=O)O)C(=O)O)cc1)CN2 (some centres undefined) : 200.33

Next:
Value of measured ABSOLUTE MONOCYTE for the entry C[C@@H](O)[C@H]1C(=O)N2C(C(=O)O)=C(S[C@@H]3CN[C@H](C(=O)N(C)C)C3)[C@H](C)[C@H]12 : 0

Value of measured ABSOLUTE MONOCYTE for the entry CCOC(=O)[C@H](CCc1ccccc1)N[C@@H](C)C(=O)N1CCC[C@H]1C(=O)O : 266

Value of measured ABSOLUTE MONOCYTE for the entry CC(C)(Sc1cc(C(C)(C)C)c(O)c(C(C)(C)C)c1)Sc1cc(C(C)(C)C)c(O)c(C(C)(C)C)c1 : 39

* * *

Species: Rattus norvegicus
ASSAY DETAILS: DrugMatrix - Regimen: Daily Repeat
Format: toxicity, organism-based, Sprague-Dawley
Set-up: regimen Daily Repeat, gender Male, age 6-8 weeks
EXPERIMENTAL SETUP: in vivo, po, 0 mg/kg, 120 h, tissue Plasma, route oral GAVAGE, dose level Control, time 5 day, vehicle .5 % CMC
Readings of SODIUM for the listed molecules
A number alone suffices; assume MEQ/L.

// known answers, use as guide
Value of measured SODIUM for the entry Nc1cccc(Cl)c1 [3-CHLOROANILINE] : 148.17

Value of measured SODIUM for the entry CO[C@H]1C[C@@H]2CC[C@@H](C)[C@@](O)(O2)C(=O)C(=O)N2CCCC[C@H]2C(=O)O[C@H]([C@H](C)C[C@@H]2CC[C@@H](O)[C@H](OC)C2)CC(=O)[C@H](C)/C=C(\C)[C@@H](O)[C@@H](OC)C(=O)[C@H](C)C[C@H](C)/C=C/C=C/C=C/1C [SIROLIMUS] : 142.8

Value of measured SODIUM for the entry C[C@@H](O)[C@H]1C(=O)N2C(C(=O)O)=C(S[C@@H]3CN[C@H](C(=O)N(C)C)C3)[C@H](C)[C@H]12 [MEROPENEM] : 143.8

Next:
Value of measured SODIUM for the entry C[C@]12C/C(=C/O)C(=O)C[C@@H]1CC[C@@H]1[C@@H]2CC[C@@]2(C)[C@H]1CC[C@]2(C)O [OXYMETHOLONE] : 151.5

Value of measured SODIUM for the entry CC[C@]1(O)CC[C@H]2[C@@H]3CCC4=CCCC[C@@H]4[C@H]3CC[C@@]21C : 147

Value of measured SODIUM for the entry Cc1cnc(C(=O)NCCc2ccc(S(=O)(=O)NC(=O)NC3CCCCC3)cc2)cn1 [GLIPIZIDE] : 143.03
